Assay: yeast display, Sf9 membrane polyspecificity reagent, FACS + sequencing; frameworks hold sequencing errors

Seq string	polyreactivity (PSR sort gate)
QVQHVESGGRLVQAGGSLRLSCAASGSIFAAYAMGWYRQAPGKERELVAAISRSGASTYYADSVKGRFTISRDNAKNTVYLQMNSLKPVDTAVYYCAADTYAYPHDNYDYWGQGTQVTVSS	low polyreactivity
QVQLVESGGGLVQAGGRLRLSCAASGSTFIDYAMGWYRPAPGKERELVAAITNGGNTKYADSVKGRFTISRDNAKNTVYLQMKSLKPEDTSVDYCSREPSIFTSSYDYWGQGTQVTVSS	low polyreactivity
QVQLVESGGGLVQAGGSLRLSCAASGSTLGVYAMGWYRQAPGKERELVAAITIGGSTNFADSVKGRFTISRDNAKNTVYLQLNSLKPEDTAVYYCNAYYYWEGHGYTLLSYYYWGQGTQVTVSS	low polyreactivity

###

Assay: yeast display, Sf9 membrane polyspecificity reagent, FACS + sequencing; frameworks hold sequencing errors
Endpoint name: polyreactivity (PSR sort gate)

Seq string	Reading
QVQLVESGGGLVQAGGSLRLSWAASSIFRTYAMGWYRQAPGKERELVAAITWSGASTNYADSVKGRFTISRDNAKNTVYLQMNSLKPEDTAVYYCNADWRYYPSFKYYYWGQGTQVTVSS	high polyreactivity
QVQLVESGGGLVQAGGSLRLSCAASGGTFYAYAMGWYRQAPGKERELVAAITRSGGRPYYADSVKGRVTISRDNAKNTVYLQMNSLKPEDTEVYYCAADPHHYSGLDYWGQGTHVTVSS	low polyreactivity
QVQRVESGGGLVQAGGSLRLSCAASGFIFARNAMGWNRPAPGKERELVAAINQSGGITRYADSVKGRFTISRDNAKNTVYLQMNSLKPEDTAVYYCATPLYVRYDYWGQGSQVTVSS	high polyreactivity
QVQLVESGGGLVQAGGSLRLSCAASGFTFWWYAMGWYRQAPGKERELVASIDTRGGTYYADSVKGRFTISRDNAKNTVYLQMNSLKPEDSAVYYCNADGAYGNYRGGYWGQGTEVTVSS	high polyreactivity

Consider the record given below.
For QVQLVESGGGLVQAGGSLRLSCAASGSTFVGNAMGWYRQAPGKERELVAGISSGGSSNYADSVKGRFTISRDNAKNTVYLQMNSLKREDTAVYYCNAVPGVGEMDYWGQGTQVTVSS , what is its reported polyreactivity (PSR sort gate)?
low polyreactivity
